# target system: T1, human TNFR2 (human, UniProt P20333 23-461)
# T1 construct: Human TNFR2 over-expressed on CHO cells, full length on transduced NF-KB-GFP Jurkat cells, or native on human primary T cells; also called Hu TNFR2; TNFRSF1B
# T1 sequence: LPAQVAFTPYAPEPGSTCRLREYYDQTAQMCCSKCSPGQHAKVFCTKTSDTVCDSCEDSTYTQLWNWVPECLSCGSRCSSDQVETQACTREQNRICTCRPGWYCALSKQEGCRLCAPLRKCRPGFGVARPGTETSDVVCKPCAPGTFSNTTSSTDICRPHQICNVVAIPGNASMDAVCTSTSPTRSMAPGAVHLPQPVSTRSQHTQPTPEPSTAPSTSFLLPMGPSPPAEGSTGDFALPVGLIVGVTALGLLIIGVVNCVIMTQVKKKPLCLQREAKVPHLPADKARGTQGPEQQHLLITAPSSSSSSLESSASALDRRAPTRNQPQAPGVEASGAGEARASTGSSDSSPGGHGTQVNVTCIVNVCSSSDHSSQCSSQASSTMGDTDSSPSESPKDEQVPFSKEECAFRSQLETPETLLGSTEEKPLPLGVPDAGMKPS
# experiment: binding to human TNFR2 CHO cells
reported property: EC50 (nM)

>  <binder>
GBT-TNFR2-854 (parental) (antibody, human IgG2, kappa, V domains shown, Chimeric mouse V / human IgG2 effector-null, kappa; same hybridoma clone as IgG1 825) VH: QVQLKESGPGLVAPSQSLSITCTVSGFSFPSSGVDWVRQSPGKGLEWLGVTWGVGSTHYNSALKSRLSISKDNSKSQVFLKMNSLQTEDTAIYYCASGEWDEGFVYWGQGTLVTVSA VL: DIVMTQSQKFMSTTVGDRVSITCKASQNVGTAVAWYQQKPGQSPKLLIYSASNRYTGVPDRFTGSGSGTDFTLTISNMQSEDLADYFCQQYSSYPLTFGGGTKLEIKR

>  <reported property>
EC50

>  <experimental value>
1.13

$$$$
